Ref: patent US20240327534A1

- system: T1, human BCMA on BCMA expressing cell lines (human, UniProt Q02223 1-184)
- T1 sequence: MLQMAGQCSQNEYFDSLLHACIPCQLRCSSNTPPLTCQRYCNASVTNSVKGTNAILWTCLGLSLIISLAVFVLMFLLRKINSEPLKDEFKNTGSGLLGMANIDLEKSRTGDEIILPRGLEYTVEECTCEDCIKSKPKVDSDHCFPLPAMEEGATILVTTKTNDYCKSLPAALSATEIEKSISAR
- assay_method_text: cell-based or functional assay
Exercise: for every item that follows, state its recorded TDCC EC50 (EJM cells).
Answers are plain numbers, in nM.

Required: TDCC EC50 (EJM cells), one value per binder below.
1. BCMA targeting trispecific protein 02H06 (other, trispecific; not shown: The C-terminal 6xHis tag is left out because it follows these missing domains) VHH: EVQLVESGGGLVQPGRSLTLSCAASTNIRSISPMGWYRQAPGKQRELVAAIHGSSTLYADSVKGRFTISRDNAKNSIYLQMNSLRPEDTALYYCNKVPWGDYHPRNVVWGQGTQVTVSS
2. BCMA targeting trispecific protein 02B11 (other, trispecific; not shown: anti-albumin domain, anti-CD3 domain and the linkers of the trispecific (TriTAC) format) VHH: EVQLVESGGGLVQPGRSLTLSCAASTNIVSISPMGWYRQAPGKQRELVAAIHGDSTLYADSVKGRFTISRDNAKNSIYLQMNSLRPEDTALYYCNKVPWGDYHPRNVSWGQGTQVTVSS
3. BCMA targeting trispecific protein 02B01 (other, not shown: large carriers; small tags and cut ends, trispecific) VHH: EVQLVESGGGLVQPGRSLTLSCAASTNIFSNSPMGWYRQAPGKQRELVAAIHGRSTLYADSVKGRFTISRDNAKNSIYLQMNSLRPEDTALYYCNKVPWGDYHPRNVMWGQGTQVTVSS
4. BCMA targeting trispecific protein 02G02 (other, trispecific; also called 02G02 TriTAC; not shown: anti-albumin domain, anti-CD3 domain and the linkers of the trispecific (TriTAC) format) VHH: EVQLVESGGGLVQPGRSLTLSCAASTNIFSITPMGWYRQAPGKQRELVAAIHGASTLYADSVKGRFTISRDNAKNSIYLQMNSLRPEDTALYYCNKVPWGDYHPGNVYWGQGTQVTVSS

1: 0.0319; 2: 0.0144; 3: 0.0518; 4: 0.00108
